# experiment: in vivo
# Design: species or system rats
# experimentalConditions: catalepsy ED50 / amphetamine antagonism ED50
resultType: Ratio catalep./Amphet.
Response field accepts a number only; no unit should be typed.

Solved cases (5 shown):
| compound | resultType | testValue |
| --- | --- | --- |
| OCCN1CCN([C@@H]2C[C@@H](c3ccccc3)c3ccc(C(F)(F)F)cc32)CC1 (relative stereo) [Lu 18-089] | Ratio catalep./Amphet. | 0.5 |
| CN1CCN(C2CC(c3ccc(F)cc3)c3ccc(C(F)(F)F)cc32)CC1 (stereo not drawn) [Lu 18-023] | Ratio catalep./Amphet. | 2 |
| CN1CCN(C2CC(c3ccc(F)cc3)c3ccc(F)cc32)CC1 (single isomer, unassigned; (+)) [Lu 17-151] | Ratio catalep./Amphet. | 2.7 |
| OCCN1CCN([C@@H]2C[C@@H](c3ccc(F)cc3)c3ccc(F)cc32)CC1 (relative stereo) [Lu 13-117] | Ratio catalep./Amphet. | 13 |
| OCCCN1CCN(C2CC(c3ccc(F)cc3)c3ccc(C(F)(F)F)cc32)CC1 (stereo not drawn) [Lu 18-048] | Ratio catalep./Amphet. | 0.4 |

What value of measured Ratio catalep./Amphet. is listed for CN1CCN([C@@H]2C[C@@H](c3ccc(F)cc3)c3ccc(Cl)cc32)CC1 (relative stereo) [Lu 17-121] ?
0.3

What value of measured Ratio catalep./Amphet. is listed for CC(C)N1CCN(C2CC(c3ccc(F)cc3)c3ccc(C(F)(F)F)cc32)CC1 (stereo not drawn) [Lu 18-050] ?
2.4

What value of measured Ratio catalep./Amphet. is listed for OCCCCN1CCN([C@@H]2C[C@@H](c3ccc(F)cc3)c3ccc(F)cc32)CC1 (relative stereo) [Lu 18-080] ?
6.2

What value of measured Ratio catalep./Amphet. is listed for Cc1ccc2c(c1)C(N1CCN(C(C)C)CC1)CC2c1ccc(F)cc1 (stereo not drawn) [Lu 17-069] ?
1.2

What value of measured Ratio catalep./Amphet. is listed for CC(C)N1CCN(C2CC(c3ccc(F)cc3)c3ccc(F)cc32)CC1 (stereo not drawn) [Lu 17-062] ?
1.4

What value of measured Ratio catalep./Amphet. is listed for OCCN1CCN(CCCN2c3ccccc3Sc3ccc(C(F)(F)F)cc32)CC1 [fluphenazine, reference compound] ?
0.43

What value of measured Ratio catalep./Amphet. is listed for OCCN1CCN([C@@H]2C[C@@H](c3ccc(F)cc3)c3ccc(Cl)cc32)CC1 (relative stereo) [Lu 14-068] ?
0.9

What value of measured Ratio catalep./Amphet. is listed for Cc1ccc2c(c1)[C@H](N1CCN(C)CC1)C[C@H]2c1ccc(F)cc1 (relative stereo) [Lu 17-048] ?
0.7

What value of measured Ratio catalep./Amphet. is listed for OCC(O)CN1CCN(C2CC(c3ccc(F)cc3)c3ccc(F)cc32)CC1 (single isomer, unassigned) [Lu 17-066] ?
8.9

---

# experiment: in vivo
# experimentalConditions: iv
Quick rule for you: LD50 under 80 mg/kg gets 1, anything else gets -1.

These recorded examples may help you get a feel for the data.
| compound | cat |
| --- | --- |
| OCCCN1CCN([C@@H]2C[C@@H](c3ccc(F)cc3)c3ccc(F)cc32)CC1 (relative stereo) [Lu 14-036] | -1 |
| OCCN1CCN([C@@H]2C[C@@H](c3ccccc3)c3ccc(C(F)(F)F)cc32)CC1 (relative stereo) [Lu 18-089] | 1 |
| O=C1OCCN1CCN1CCN(C2CC(c3ccc(F)cc3)c3ccc(F)cc32)CC1 (centres unmarked) [Lu 17-039] | -1 |
| CSc1ccc2c(c1)[C@H](N1CCN(CCO)CC1)C[C@H]2c1ccc(F)cc1 (relative stereo) [Lu 17-053] | 1 |
| O[C@H]1CC[C@H](CN2CCN(C3CC(c4ccc(F)cc4)c4ccc(F)cc43)CC2)CC1 (relative stereo) [Lu 17-059] | -1 |

Hi there! Is LD50 for OCCN1CCN([C@@H]2C[C@@H](c3ccc(F)cc3)c3ccc(F)cc32)CC1 (relative stereo) [Lu 13-117] below 80 mg/kg, do you know?
-1

Hi there! Is LD50 for COc1ccc2c3c1O[C@H]1[C@@H](O)C=C[C@H]4[C@@H](C2)N(C)CC[C@@]341 [codeine, reference compound] below 80 mg/kg, do you know?
-1

Hi there! Is LD50 for OCC(O)CN1CCN(C2CC(c3ccc(F)cc3)c3ccc(C(F)(F)F)cc32)CC1 (centres unmarked) [Lu 18-063] below 80 mg/kg, do you know?
1

Hi there! Is LD50 for OCC(O)CN1CCN(C2CC(c3ccc(F)cc3)c3ccc(F)cc32)CC1 (single isomer, unassigned) [Lu 17-066] below 80 mg/kg, do you know?
-1

Hi there! Is LD50 for CSc1ccc2c(c1)[C@H](N1CCN(C)CC1)C[C@H]2c1ccc(F)cc1 (relative stereo) [Lu 17-055] below 80 mg/kg, do you know?
1

Hi there! Is LD50 for Fc1ccc(C2CC(N3CCN(CC4CC4)CC3)c3cc(F)ccc32)cc1 (centres unmarked) [Lu 18-157] below 80 mg/kg, do you know?
1
